- Target desc: human CB1 receptor (Homo sapiens, UniProt P21554)
- Construct: expressed in transfected cells
- Sequence (P21554 whole entry): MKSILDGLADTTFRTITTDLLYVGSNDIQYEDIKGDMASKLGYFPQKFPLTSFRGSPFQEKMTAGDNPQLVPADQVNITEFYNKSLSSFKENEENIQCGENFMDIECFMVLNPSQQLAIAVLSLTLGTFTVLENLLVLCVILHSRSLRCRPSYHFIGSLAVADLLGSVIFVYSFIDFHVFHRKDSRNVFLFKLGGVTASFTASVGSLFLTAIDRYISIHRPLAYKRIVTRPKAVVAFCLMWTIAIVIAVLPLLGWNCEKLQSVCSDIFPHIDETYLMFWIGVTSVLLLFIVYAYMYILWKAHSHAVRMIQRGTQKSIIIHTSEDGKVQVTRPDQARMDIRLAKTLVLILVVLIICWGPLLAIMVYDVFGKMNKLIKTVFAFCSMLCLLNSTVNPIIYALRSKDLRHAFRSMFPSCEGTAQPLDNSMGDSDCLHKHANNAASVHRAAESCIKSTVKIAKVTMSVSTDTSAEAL
- Assay: Human CB1 receptor binding inhibition test
- Recorded conditions: CHO-DHFR(−) cells stably expressing human CB1 receptor, same manner as Experimental Example 1
Attribute measured: IC50 (nM)
Kindly provide the numeric value in nM only, without the unit symbol.

IN: Returns the measured IC50 for the input molecule. Input: Cc1c(Br)cccc1C(=O)/N=c1\sc(C(C)(C)C)c(C)n1CC1CC1 [compound 245]
OUT: 32

IN: Returns the measured IC50 for the input molecule. Input: COc1ccc(F)cc1C(=O)/N=c1\sc(C(C)(C)C)c(C)n1CC1CC1 [compound 262]
OUT: 435

IN: Returns the measured IC50 for the input molecule. Input: Cc1c(C(C)(C)C)s/c(=N\C(=O)c2nccc3ccccc23)n1CC1CC1 [compound 324]
OUT: 353

IN: Returns the measured IC50 for the input molecule. Input: Cc1c(C(C)(C)C)s/c(=N\C(=O)c2c(F)ccc(C(F)(F)F)c2F)n1CC1CC1 [compound 288]
OUT: 49

Entry source: patent US20080312435A1
